tested on: Vero E6 infected with SARS-CoV-2; assay: inhibition of SARS-CoV-2 cytopathic effect; higher = more antiviral protection, active = above 15; settings: 100 nM; 48 h
PROPERTY_NAME: inhibition of SARS-CoV-2 cytopathic effect (%)
Number in %, nothing else.

Examples with their reported inhibition of SARS-CoV-2 cytopathic effect follow.
COMPOUND: CN1Cc2ccccc2[C@@H]2c3cccc4[nH]cc(c34)C[C@H]21
MEASURED_TARGET: Vero E6 infected with SARS-CoV-2
RECORDED_NUMBER: -1.06
//
COMPOUND: O=C(NCc1ccncc1)C12CC3CC(C1)CC(c1ccc(Cl)cc1)(C3)C2
MEASURED_TARGET: Vero E6 infected with SARS-CoV-2
RECORDED_NUMBER: -2.61
//
COMPOUND: C[C@@H](NC(=O)c1ncnc(N)c1Cl)c1ncc(C(=O)Nc2cc(C(F)(F)F)c(Cl)cn2)s1
MEASURED_TARGET: Vero E6 infected with SARS-CoV-2
RECORDED_NUMBER: 4.35
//
COMPOUND: c1coc(CNc2ncnc3[nH]cnc23)c1 [kinetin]
MEASURED_TARGET: Vero E6 infected with SARS-CoV-2
RECORDED_NUMBER: 1.35

Let us examine a further case.
**Q:** Consider the compound COC(=O)C(Cc1ccc(OCCn2c(=O)sc3cc(C(=O)c4ccccc4)ccc32)cc1)C(=O)OC and give its measured inhibition of SARS-CoV-2 cytopathic effect.
**A:** -1.78

---

system: Vero E6 infected with SARS-CoV-2; assay: inhibition of SARS-CoV-2 cytopathic effect; higher = more antiviral protection, active = above 15; conditions: 833.33 nM; 48 h
Reported inhibition of SARS-CoV-2 cytopathic effect is given for each of the following compounds.
Number in %, nothing else.

Examples with their reported inhibition of SARS-CoV-2 cytopathic effect follow.
COMPOUND: CN1CCC(=C2c3ccccc3CCc3sccc32)CC1 [pizotifen]
MEASURED_TARGET: Vero E6 infected with SARS-CoV-2
RECORDED_NUMBER: 1.5
//
COMPOUND: N=C(N)N [guanidine]
MEASURED_TARGET: Vero E6 infected with SARS-CoV-2
RECORDED_NUMBER: -3.58
//
COMPOUND: CCCC(=O)Nc1ncnc2c1ncn2[C@@H]1O[C@@H]2COP(=O)(O)O[C@H]2[C@H]1OC(=O)CCC [bucladesine]
MEASURED_TARGET: Vero E6 infected with SARS-CoV-2
RECORDED_NUMBER: 0.58
//
COMPOUND: CCOc1ccn(-c2ccc(F)cc2)c(=O)c1C(=O)Nc1ccc(Oc2ccnc(N)c2Cl)c(F)c1
MEASURED_TARGET: Vero E6 infected with SARS-CoV-2
RECORDED_NUMBER: 2.11
//
COMPOUND: COc1ccc2cc1Oc1ccc(cc1)C[C@H]1c3c(cc4c(c3Oc3cc5c(cc3OC)CCN(C)[C@@H]5C2)OCO4)CCN1C [cepharanthine]
MEASURED_TARGET: Vero E6 infected with SARS-CoV-2
RECORDED_NUMBER: -2.66

**Q:** Consider the compound COc1ccc2[nH]c(I)c(CCNC(C)=O)c2c1 [2-iodomelatonin] and give its measured inhibition of SARS-CoV-2 cytopathic effect.
**A:** 0.89

**Q:** Consider the compound CN(C)CCn1nnnc1SCC1=C(C(=O)O)N2C(=O)[C@@H](NC(=O)Cc3csc(N)n3)[C@H]2SC1 [cefotiam] and give its measured inhibition of SARS-CoV-2 cytopathic effect.
**A:** 1.14

**Q:** Consider the compound COc1ccc(C[C@H]2NC[C@H](O)[C@H]2OC(C)=O)cc1 [anisomycin] and give its measured inhibition of SARS-CoV-2 cytopathic effect.
**A:** 7.95

**Q:** Consider the compound NC(=O)Nc1cc(-c2cccc(F)c2)sc1C(=O)N[C@H]1CCCNC1 and give its measured inhibition of SARS-CoV-2 cytopathic effect.
**A:** -4.24

---

system: Vero E6 infected with SARS-CoV-2; assay: inhibition of SARS-CoV-2 cytopathic effect; higher = more antiviral protection, active = above 15; conditions: 833.33 nM; 48 h
Reported inhibition of SARS-CoV-2 cytopathic effect is given for each of the following compounds.
Number in %, nothing else.

Examples with their reported inhibition of SARS-CoV-2 cytopathic effect follow.
COMPOUND: C[C@]12Cc3c[nH]nc3C[C@@H]1CC[C@@H]1[C@@H]2CC[C@@]2(C)[C@H]1CC[C@]2(C)O [stanozolol]
RECORDED_NUMBER: -3.19
--
COMPOUND: O=C(O)CCC/C=C\C[C@@H]1[C@@H](/C=C/[C@@H](O)COc2cccc(Cl)c2)[C@H](O)C[C@@H]1O (racemic) [cloprostenol-(+/-)]
RECORDED_NUMBER: 5.03
--
COMPOUND: Cc1nnc(-c2ccc3occ(-c4ccc([S+](C)[O-])cc4)c3c2)o1 (configuration not stated)
RECORDED_NUMBER: 1.56
--
COMPOUND: CC(CCc1ccccc1)NC(C)C(O)c1ccc(O)cc1 (configuration not stated) [buphenine]
RECORDED_NUMBER: -0.63
--
COMPOUND: CC[C@H]1OC(=O)[C@@](C)(F)C(=O)[C@H](C)[C@@H](O[C@@H]2O[C@H](C)C[C@H](N(C)C)[C@H]2O)[C@](C)(OC)C[C@@H](C)C(=O)[C@H](C)[C@H]2N(CCCCn3cc(-c4cccc(N)c4)nn3)C(=O)O[C@]12C [solithromycin]
RECORDED_NUMBER: -0.9

**Q:** Consider the compound Nc1c(CC(=O)O)cccc1C(=O)c1ccc(Br)cc1 [bromfenac] and give its measured inhibition of SARS-CoV-2 cytopathic effect.
**A:** -0.93

**Q:** Consider the compound CC(=O)CCCCn1c(=O)c2c(ncn2C)n(C)c1=O [pentoxifylline] and give its measured inhibition of SARS-CoV-2 cytopathic effect.
**A:** 1.21

**Q:** Consider the compound CSc1ccc(C(=O)N[C@@H]2CCCC[C@@H]2NC(=O)CNC(=O)c2cc(C(F)(F)F)ccc2NC(=O)NC(C)C)cc1 and give its measured inhibition of SARS-CoV-2 cytopathic effect.
**A:** 0.24

**Q:** Consider the compound O=C(c1ccc(F)c(F)c1Nc1ccc(I)cc1F)N1CC(O)([C@@H]2CCCCN2)C1 [cobimetinib] and give its measured inhibition of SARS-CoV-2 cytopathic effect.
**A:** -11.8

**Q:** Consider the compound CCCOc1ccc(C(=O)OCCN(CC)CC)cc1N [proxymetacaine] and give its measured inhibition of SARS-CoV-2 cytopathic effect.
**A:** 0.25

**Q:** Consider the compound O=S(=O)(O)c1cc(I)c(O)c2ncccc12 [chiniofon] and give its measured inhibition of SARS-CoV-2 cytopathic effect.
**A:** 3.44

**Q:** Consider the compound COCc1c(-c2ccc(NC(=O)Nc3cc(C(F)(F)F)ccc3F)c(F)c2)c2c(N)ncnn2c1CN1CCOCC1 and give its measured inhibition of SARS-CoV-2 cytopathic effect.
**A:** -0.39

**Q:** Consider the compound Cc1cccc(NC(=O)N[C@@H]2N=C(c3ccccc3)c3ccccc3N(C)C2=O)c1 and give its measured inhibition of SARS-CoV-2 cytopathic effect.
**A:** 0.31

**Q:** Consider the compound COc1cc2c(cc1O)CC[C@@H]1[C@@H]2CC[C@]2(C)[C@@H](O)CC[C@@H]12 [2-methoxyestradiol] and give its measured inhibition of SARS-CoV-2 cytopathic effect.
**A:** -1.83

**Q:** Consider the compound O=C(O)[C@@H]1C[C@@H](O)CN1 [L-hydroxyproline] and give its measured inhibition of SARS-CoV-2 cytopathic effect.
**A:** -1.36

**Q:** Consider the compound CCCc1ncc(C[n+]2ccccc2C)c(N)n1 [amprolium] and give its measured inhibition of SARS-CoV-2 cytopathic effect.
**A:** -0.09

**Q:** Consider the compound Cc1cc(NC(=O)Nc2ccc(N(C)C)cc2)c2cc(F)cc(F)c2n1 and give its measured inhibition of SARS-CoV-2 cytopathic effect.
**A:** 3.02

---

system: Vero E6 infected with SARS-CoV-2; assay: morphology score (similarity to uninfected cells); higher = more like uninfected cells; conditions: 24 h
Returns 1 if the recorded morphology score is greater than or equal to 0.05, and 0 otherwise.

# count of solved cases: 4
COMPOUND: CCCC(C(=O)OCCN(CC)CC)(c1ccccc1)c1ccccc1 [proadifen] (10 µM)
CATEGORY_LABEL: 1

COMPOUND: O=C(C[S+]([O-])Cc1ccco1)NC/C=C\COc1cc(CN2CCCCC2)ccn1 (stereo not given) [lafutidine] (10 µM)
CATEGORY_LABEL: 1

COMPOUND: Nc1nc2c(cnn2CCc2ccccc2)c2nc(-c3ccco3)nn12 (10 µM)
CATEGORY_LABEL: 0

COMPOUND: Cn1cc(C(=O)c2cccc3ccccc23)cc1C(=O)O [napirimus] (10 µM)
CATEGORY_LABEL: 1

Please examine the following record next.
**Q:** Is the recorded value of morphology score equal to or greater than 0.05 for this compound? CC(C)(C)C1CCc2c(sc(NC(=O)c3ccco3)c2C(=O)O)C1 (stereo not given) (0.833333 µM)
**A:** 1

All values here come from the supplement of paper PMC13380429.
